Listed next: entries and their corresponding Activity.
assay: Antiradical activity assessed as DPPH radical scavenging activity at 1500 uM by spectrophotometry relative to control; format: physicochemical
attribute-measured: Activity (%)

{"columns": ["molecule-smiles", "attribute-measured", "measure-unit", "reported-result"],
 "data": [
  ["CC(C)=CCC/C(C)=C/C=C/C(C)=C/C=C/C(C)=C/C=C/C=C(C)/C=C/C=C(C)/C=C/C=C(\\C)CCC=C(C)C", "Activity", "%", 36],
  ["COC(=O)/C(C)=C/C=C/C=C(C)/C=C/C=C(C)/C=C/[C@@H]1C(C)=CC(=O)CC1(C)C", "Activity", "%", 21],
  ["CC1=C(/C=C/C(C)=C/C=C/C(C)=C/C=C/C=C(C)/C=C/C=C(C)/C=C/C2=C(C)CCCC2(C)C)C(C)(C)CCC1", "Activity", "%", 36],
  ["CC1=C(/C=C/C(C)=C/C=C/C(C)=C/C=C/C=C(C)/C=C/C=C(C)/C=C/C2=C(C)C(=O)[C@@H](O)CC2(C)C)C(C)(C)C[C@H](O)C1=O", "Activity", "%", 52],
  ["COC(=O)/C(C)=C/C=C/C(C)=C/C=C/C=C(C)/C=C/C=C(C)/C=C/[C@]12O[C@@H](CC1(C)C)C[C@]2(C)O", "Activity", "%", 12]
]}
